Reference for the values: patent US20120184744A1

- ASSAY_PROTOCOL: Solubility in 14.6 wt % IPA in DMF
- Type: physicochemical
- MEASUREMENT_CONTEXT: organic solvent or mixture
- Method: To prepare the mono-HCl salt anhydrate Form I of Compound A, dissolve 1.00 g of Compound A freebase monohydrate in 7.0 mL (6.65 g) DMF at 55° C. Next, charge 0.05 eq of HCl. Then, charge 0.25 wt % media-milled seed ([…] of API). The solubility of Compound A HCl seed in 14.6 wt % IPA in DMF is <2 mg/mL. Age seed bed for 1 hr. Next, charge 0.92 eq of HCl over 8 hrs (linear charge rate) holding batch at 55. No dispersion is required. Total HCl charge is 0.97 eq. […]
Counter-ions that a name gives are not always drawn.
ASSAY_METRIC: solubility

Entry Cn1cc(-c2cnc3ccc4ccc(CS(=O)(=O)NCc5ccccn5)cc4c(=O)c3c2)cn1 [Compound A HCl seed] , solubility reported as < 2000 µg/mL
